The following compounds are listed with their measured TOTAL BILIRUBIN values.
Species on record: Rattus norvegicus
Test: DrugMatrix - Regimen: Daily Repeat
Format: toxicity, organism-based, Sprague-Dawley
Parameters: regimen Daily Repeat, gender Male, age 6-8 weeks
Details: in vivo, po, 0 mg/kg, 72 h, tissue Plasma, route oral GAVAGE, dose level Control, time 3 day, vehicle 100 % WATER

Record summary for Cc1cc(NS(=O)(=O)c2ccc(N)cc2)no1 : reported TOTAL BILIRUBIN = 0.22 mg/dL

Please fill in: TOTAL BILIRUBIN reported for O=C1NC(=O)C(c2ccccc2)(c2ccccc2)N1 = 0.22 mg/dL

---

Organism: Rattus norvegicus
Test: DrugMatrix - Regimen: Daily Repeat
Assay type: toxicity, organism-based, Sprague-Dawley
Set-up: regimen Daily Repeat, gender Male, age 6-8 weeks
Conditions: in vivo, ip, 0 mg/kg, 120 h, tissue Blood, route intraperitoneal, dose level Control, time 5 day, vehicle 100 % SALINE
Readout Kind: ABSOLUTE EOSINOPHIL

Input NCC[C@H](O)C(=O)N[C@@H]1C[C@H](N)[C@@H](O[C@H]2O[C@H](CN)[C@@H](O)[C@H](O)[C@H]2O)[C@H](O)[C@H]1O[C@H]1O[C@H](CO)[C@@H](O)[C@H](N)[C@H]1O [AMIKACIN] . Output ABSOLUTE EOSINOPHIL: 110 cells/µL

---

Species on record: Rattus norvegicus
Type: toxicity, organism-based, Sprague-Dawley
Settings: in vivo, po, 0 mg/kg, 24 h, vehicle control, tissue Blood, route oral GAVAGE, dose level Control, time 1 day, […]
Description: DrugMatrix - Regimen: Single
Readout Kind: ABSOLUTE EOSINOPHIL (CELLS/uL)
The response must be a number in CELLS/uL with no trailing unit.

// CC(C)(Oc1ccc(CCNC(=O)c2ccc(Cl)cc2)cc1)C(=O)O [BEZAFIBRATE] : ABSOLUTE EOSINOPHIL value = 90.83

---

Species: Rattus norvegicus
Experiment: DrugMatrix - Regimen: Daily Repeat
Assay type: toxicity, organism-based, Sprague-Dawley
Set-up: regimen Daily Repeat, gender Male, age 6-8 weeks
Details: in vivo, po, 0 mg/kg, 72 h, tissue Plasma, route oral GAVAGE, dose level Control, time 3 day, vehicle 100 % WATER
Mark Condition met only for URIC ACID values smaller than 2 mg/dL; exact matches and larger values are Condition not met.

Examples with answers:
{"Compound": "Cc1cc(NS(=O)(=O)c2ccc(N)cc2)no1", "Classification": "Condition met"}
{"Compound": "COc1cccc(C2(O)CCCCC2CN(C)C)c1 (centres undefined)", "Classification": "Condition met"}
{"Compound": "COc1cc2c(N3CCN(C(=O)Nc4ccc(OC(C)C)cc4)CC3)ncnc2cc1OCCCN1CCCCC1", "Classification": "Condition met"}
{"Compound": "COc1ccc(C(CN(C)C)C2(O)CCCCC2)cc1 (centres undefined)", "Classification": "Condition met"}
{"Compound": "Clc1ccc(C(c2ccccc2Cl)C(Cl)Cl)cc1 (centres undefined)", "Classification": "Condition met"}
{"Compound": "Cn1cnc([N+](=O)[O-])c1Sc1ncnc2nc[nH]c12", "Classification": "Condition met"}
{"Compound": "O=C1NC(=O)C(c2ccccc2)(c2ccccc2)N1", "Classification": "Condition met"}
{"Compound": "NNC(=O)c1ccncc1", "Classification": "Condition not met"}

Input Fc1ccc([C@@H]2CCNC[C@H]2COc2ccc3c(c2)OCO3)cc1 ; condition: URIC ACID strictly below 2 mg/dL. Does it hold?
Condition met

Is 2 mg/dL strictly greater than the compound's reported URIC ACID? compound: CC(CCc1ccccc1)NCC(O)c1ccc(O)c(C(N)=O)c1 (centres undefined)
Condition met

Strictly below 2 mg/dL in URIC ACID? Nc1ccc(S(=O)(=O)Nc2ccnn2-c2ccccc2)cc1
Condition met

State whether 2 mg/dL exceeds URIC ACID recorded for NCC1(CC(=O)O)CCCCC1 .
Condition met

Item CC1(C)S[C@@H]2[C@H](NC(=O)[C@H](N)c3ccc(O)cc3)C(=O)N2[C@H]1C(=O)O : URIC ACID beneath 2 mg/dL, strictly?
Condition met

Does CC(C)(S)[C@@H](N)C(=O)O have URIC ACID strictly under 2 mg/dL?
Condition met

Please indicate whether the reported URIC ACID of CN1CCN(C(=O)OC2c3nccnc3C(=O)N2c2ccc(Cl)cn2)CC1 (centres undefined) is strictly below 2 mg/dL.
Condition met

Does the reported URIC ACID of the following compound sit strictly below 2 mg/dL? C[C@]12Cc3c[nH]nc3C[C@@H]1CC[C@@H]1[C@@H]2CC[C@@]2(C)[C@H]1CC[C@]2(C)O
Condition met

Please let me know if CNCCC=C1c2ccccc2CCc2ccccc21 shows URIC ACID below 2 mg/dL.
Condition met

Item CC1COc2c(N3CCN(C)CC3)c(F)cc3c(=O)c(C(=O)O)cn1c23 (centres undefined) : URIC ACID beneath 2 mg/dL, strictly?
Condition not met

Please state whether URIC ACID is below 2 mg/dL for CN1CCC[C@H]1c1cccnc1
Condition not met

---

Organism: Rattus norvegicus
Assay: DrugMatrix - Regimen: Daily Repeat
Assay type: toxicity, organism-based, Sprague-Dawley
Parameters: regimen Daily Repeat, gender Male, age 6-8 weeks
Conditions: in vivo, po, 0 mg/kg, 120 h, tissue Plasma, route oral GAVAGE, dose level Control, time 5 day, […]
Readout Kind: POTASSIUM (MEQ/L)
Note: unit MEQ/L is implicit; provide only the numeric part.

Worked cases, answers included:
{"Molecule": "CC(=O)[C@H]1CC[C@H]2[C@@H]3CCC4=CC(=O)CC[C@]4(C)[C@H]3CC[C@]12C [PROGESTERONE]", "Assay Value": 5.78}
{"Molecule": "c1ccc2[nH]c(-c3cscn3)nc2c1 [THIABENDAZOLE]", "Assay Value": 5.46}
{"Molecule": "COCc1c(C(C)C)nc(C(C)C)c(/C=C/[C@@H](O)C[C@@H](O)CC(=O)O)c1-c1ccc(F)cc1 [CERIVASTATIN]", "Assay Value": 5.97}
{"Molecule": "CSc1ccc2c(c1)N(CCC1CCCCN1C)c1ccccc1S2 (centres undefined) [THIORIDAZINE]", "Assay Value": 6.13}
{"Molecule": "O=[N+]([O-])c1cc([As](=O)(O)O)ccc1O [ROXARSONE]", "Assay Value": 5.92}
{"Molecule": "CN(C)CCCC1(c2ccc(F)cc2)OCc2cc(C#N)ccc21 (centres undefined) [CITALOPRAM]", "Assay Value": 5.78}

Measured POTASSIUM of CC1=C(/C=C/C(C)=C/C=C/C(C)=C\C(=O)O)C(C)(C)CCC1 [ISOTRETINOIN] : 5.73

For CC(C)n1c(/C=C/C(O)CC(O)CC(=O)O)c(-c2ccc(F)cc2)c2ccccc21 (centres undefined) [FLUVASTATIN] the molecule record lists POTASSIUM as 5.46

Consider COC1=CC(=O)C[C@@H](C)[C@]12Oc1c(Cl)c(OC)cc(OC)c1C2=O [GRISEOFULVIN] . Its measured POTASSIUM is 6.36

---

Organism: Rattus norvegicus
Assay: DrugMatrix - Regimen: Daily Repeat
Assay type: toxicity, organism-based, Sprague-Dawley
Parameters: regimen Daily Repeat, gender Male, age 6-8 weeks
Conditions: in vivo, po, 10 mg/kg, 72 h, tissue Blood, route oral GAVAGE, dose level Low, time 3 day, vehicle .5 % CMC
Readout Kind: MEAN CORPUSCULAR VOLUME (fL)
Give your result in fL as a bare value.

Some solved cases for reference:
{"Molecule": "O=C1CN=C(c2ccccc2)c2cc([N+](=O)[O-])ccc2N1 [NITRAZEPAM]", "Assay Value": 61.9}
{"Molecule": "NS(=O)(=O)c1cc2c(cc1Cl)NCNS2(=O)=O [HYDROCHLOROTHIAZIDE]", "Assay Value": 60.07}
{"Molecule": "CC(=O)O[C@]1(C(C)=O)CC[C@H]2[C@@H]3C=C(Cl)C4=CC(=O)CC[C@]4(C)[C@H]3CC[C@@]21C [CHLORMADINONE ACETATE]", "Assay Value": 63}

Next, consider the following molecule.
Measured MEAN CORPUSCULAR VOLUME, COc1c(C)c2c(c(O)c1C/C=C(\C)CCC(=O)OCCN1CCOCC1)C(=O)OC2 [MYCOPHENOLATE MOFETIL] : 62.87

---

Species: Rattus norvegicus
Assay: DrugMatrix - Regimen: Daily Repeat
Type: toxicity, organism-based, Sprague-Dawley
Set-up: regimen Daily Repeat, gender Male, age 6-8 weeks
Conditions: in vivo, ip, 0 mg/kg, […], tissue Blood, route intraperitoneal, dose level Control, time 14 day, vehicle 100 % SALINE
Readout Kind: ABSOLUTE BASOPHIL (cells/µL)
The reply should be a number in cells/µL, with the unit left off.

Reported ABSOLUTE BASOPHIL of NCC[C@H](O)C(=O)N[C@@H]1C[C@H](N)[C@@H](O[C@H]2O[C@H](CN)[C@@H](O)[C@H](O)[C@H]2O)[C@H](O)[C@H]1O[C@H]1O[C@H](CO)[C@@H](O)[C@H](N)[C@H]1O [AMIKACIN] : 130
